Molecular target: TBK1 (Homo sapiens (Human))
Sequence (Q9UHD2 whole entry): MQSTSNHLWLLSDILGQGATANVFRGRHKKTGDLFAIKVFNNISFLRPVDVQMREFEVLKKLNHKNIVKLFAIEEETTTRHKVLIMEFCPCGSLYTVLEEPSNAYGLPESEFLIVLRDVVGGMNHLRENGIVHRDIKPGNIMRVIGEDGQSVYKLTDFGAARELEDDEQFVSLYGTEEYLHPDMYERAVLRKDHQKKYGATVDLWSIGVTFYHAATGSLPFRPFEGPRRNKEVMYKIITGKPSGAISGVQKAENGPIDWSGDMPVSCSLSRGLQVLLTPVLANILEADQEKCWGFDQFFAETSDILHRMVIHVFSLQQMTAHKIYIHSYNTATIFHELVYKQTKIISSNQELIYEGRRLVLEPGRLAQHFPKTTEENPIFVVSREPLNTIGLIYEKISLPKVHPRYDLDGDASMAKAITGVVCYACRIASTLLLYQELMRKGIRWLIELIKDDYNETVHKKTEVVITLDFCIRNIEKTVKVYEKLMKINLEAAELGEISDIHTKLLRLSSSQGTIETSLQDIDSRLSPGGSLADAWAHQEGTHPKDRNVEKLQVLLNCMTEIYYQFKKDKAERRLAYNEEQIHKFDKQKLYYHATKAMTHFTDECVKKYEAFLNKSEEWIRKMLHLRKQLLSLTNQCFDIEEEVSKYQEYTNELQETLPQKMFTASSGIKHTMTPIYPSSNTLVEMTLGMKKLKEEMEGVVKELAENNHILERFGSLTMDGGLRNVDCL
Assay: TBK1 low ATP kinase assay (in vitro assay 1)
Type: biochemical
Conditions: in vitro assay 1, read-out: TBK1 low ATP kinase assay IC50
pIC50: −log10 of the molar value.
Entries annotated with measured pIC50
property: pIC50

COc1ccccc1N1CCN(Cc2ccnc(Nc3nc4ccc(-c5nc(C)no5)cc4[nH]3)c2)CC1 = 6.77
Cc1cc(-c2ccc3nc(Nc4cc(CN5CCN(C(=O)OC(C)(C)C)CC5)ccn4)[nH]c3c2)cc(C#N)n1 = 7.28
COc1cnc(C(=O)N(C)C)cc1-c1ccc2nc(Nc3cc(CN4CCN(C(=O)C5CC5)CC4)ccn3)[nH]c2c1 = 6.20
O=C(C1CC1)N1CCN(Cc2ccnc(Nc3nc4ccc(-c5nc(C6CC6)no5)cc4[nH]3)c2)CC1 = 7.42
Cc1noc(-c2ccc3nc(Nc4cc(CN5C[C@@H](C)N(C(=O)C6CCC6)C[C@@H]5C)ccn4)[nH]c3c2)n1 = 6.39
COc1cnccc1-c1ccc2nc(Nc3cc(CN4CCN(C(=O)C5CCC5)CC4)ccn3)[nH]c2c1OCC(C)C = 6.19
Cc1noc(-c2ccc3nc(Nc4cc(CN5CCN(C(=O)CC(F)(F)F)C[C@H]5C)ccn4)[nH]c3c2)n1 = 7.20
CCOc1nccc(-c2ccc3nc(Nc4cc(CN5CCN(C(=O)OC(C)(C)C)CC5)ccn4)[nH]c3c2)n1 = 7.45
O=C(CC(F)(F)F)N1CCN(Cc2ccnc(Nc3nc4ccc(-c5ncnc(NC6CCC6)c5F)cc4[nH]3)c2)CC1 = 7.34
CC(c1ccnc(Nc2nc3ccc(-c4cc(OCC(C)(F)F)ncn4)cc3[nH]2)c1)N1CCN(C(=O)C2CC2)CC1 (single isomer, unassigned) = 8.75
COc1cnc(OCC2CC2)nc1-c1ccc2nc(Nc3cc(CN4CCN(C(=O)OC(C)(C)C)CC4)ccn3)[nH]c2c1 = 6.66
Cc1ncc(C)c(-c2ccc3nc(Nc4cc(CN5CCN(C(=O)C6CCC6)CC5)ccn4)[nH]c3c2)n1 = 5.67
Cc1cc(-c2ccc3nc(Nc4cc(CN5CCN(C(=O)C6CC6)CC5)ccn4)[nH]c3c2)c(F)cn1 = 7.49
COc1ccc(-c2ccc3nc(Nc4cc(CN5CCN(C(=O)CC(F)(F)F)CC5)ccn4)[nH]c3c2)cn1 = 6.72
O=C(C1CC1)N1CCN(Cc2ccnc(Nc3nc4ccc(-c5ncnc(NCC6CCC6)c5F)cc4[nH]3)c2)CC1 = 7.02
